Target: HLA-A*03:01
Experiment: IEDB peptide-MHC binding, purified MHC/competitive/radioactivity; filed as Kd, often an IC50 or EC50 that approximates it; bounds were set here for any values at or beyond the usual limits of such assays
Conditions: source organism: Vaccinia virus WR
Definition: the class of an entry is the range in band A: < 200 nM; band B: ≥ 200 nM and < 2000 nM; band C: ≥ 2000 nM that contains its Kd.

Completed entries (count: 6):
EFCVDHPFIY = band C
IMVASDVCKK = band A
QLCYCPASKK = band A
YVKALTKNY = band B
YSFKLILAEY = band C
DLDKVYEILK = band C

Form: Item = CFPSTQRDY ; Class = ? band B

Next sequence: TFVNFNSVK band B

Next sequence: NFIPIIYSK band C
